The molecules listed here are annotated with their MIC.
System: Mycobacterium kansasii
Assay: Antimycobacterial activity against Mycobacterium kansasii ATCC 12478
Format: functional

>  <chemical.structure>
CCCCCCC(=O)O[C@@H]1[C@H](OC)[C@@H]([C@@H](O[C@H]2OC(C(=O)Nc3ccccc3)=C[C@H](O)[C@@H]2O)C(N)=O)O[C@H]1n1ccc(=O)[nH]c1=O

>  <MIC, µg/mL>
0.5

$$$$
>  <chemical.structure>
CCCCCCCCCCCCCCCC(=O)O[C@@H]1[C@H](OC)[C@@H]([C@@H](O[C@H]2OC(C(=O)N[C@H]3CCCCNC3=O)=C[C@H](O)[C@@H]2O)C(N)=O)O[C@H]1n1ccc(=O)[nH]c1=O

>  <MIC, µg/mL>
4

$$$$
>  <chemical.structure>
CCCCCCCCCCCCCCC(=O)O[C@@H]1[C@H](OC)[C@@H]([C@@H](O[C@H]2OC(C(=O)N[C@H]3CCCCNC3=O)=C[C@H](O)[C@@H]2O)C(N)=O)O[C@H]1n1ccc(=O)[nH]c1=O

>  <MIC, µg/mL>
4

$$$$
>  <chemical.structure>
CCCCCCCCC(=O)O[C@@H]1[C@H](OC)[C@@H]([C@@H](O[C@H]2OC(C(=O)Nc3ccccc3)=C[C@H](O)[C@@H]2O)C(N)=O)O[C@H]1n1ccc(=O)[nH]c1=O

>  <MIC, µg/mL>
1

$$$$
>  <chemical.structure>
CCCCCCO[C@@H]1[C@H](OC)[C@@H]([C@@H](O[C@H]2OC(C(=O)N[C@H]3CCC[C@@H](C)NC3=O)=C[C@H](O)[C@@H]2O)C(N)=O)O[C@H]1n1ccc(=O)[nH]c1=O

>  <MIC, µg/mL>
32

$$$$

====

Target: Phospho-N-acetylmuramoyl-pentapeptide-transferase (Escherichia coli K-12)
Sequence (P0A6W3 whole entry): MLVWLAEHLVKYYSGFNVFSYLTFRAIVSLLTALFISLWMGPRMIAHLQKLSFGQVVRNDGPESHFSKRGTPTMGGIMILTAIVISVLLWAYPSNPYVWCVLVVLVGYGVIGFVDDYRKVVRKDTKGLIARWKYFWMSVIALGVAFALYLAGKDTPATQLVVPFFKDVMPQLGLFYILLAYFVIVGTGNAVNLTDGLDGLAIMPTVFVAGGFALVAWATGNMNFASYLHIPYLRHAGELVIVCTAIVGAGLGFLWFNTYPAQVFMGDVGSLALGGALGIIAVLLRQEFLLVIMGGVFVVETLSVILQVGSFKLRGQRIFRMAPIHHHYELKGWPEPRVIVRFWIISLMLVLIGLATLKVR
Test: Inhibitory concentration required against Translocase I
pIC50: −log10 of the molar value.
# pIC50 listing for each entry below

>  <chemical.structure>
CCCCCCOC(=O)O[C@@H]1[C@H](OC)[C@@H]([C@@H](O[C@H]2OC(C(=O)N[C@H]3CCC[C@@H](C)NC3=O)=C[C@H](O)[C@@H]2O)C(N)=O)O[C@H]1n1ccc(=O)[nH]c1=O

>  <pIC50>
6.74

$$$$
>  <chemical.structure>
CCCCCCCC(=O)O[C@@H]1[C@H](OC)[C@@H]([C@@H](O[C@H]2OC(C(=O)N[C@H]3CCC[C@@H](C)NC3=O)=C[C@H](O)[C@@H]2O)C(N)=O)O[C@H]1n1ccc(=O)[nH]c1=O

>  <pIC50>
6.57

$$$$
>  <chemical.structure>
CCCCCCCCCCCCCCCCCCCC(=O)O[C@@H]1[C@H](OC)[C@@H]([C@@H](O[C@H]2OC(C(=O)N[C@H]3CCC[C@@H](C)NC3=O)=C[C@H](O)[C@@H]2O)C(N)=O)O[C@H]1n1ccc(=O)[nH]c1=O

>  <pIC50>
4.47

$$$$
>  <chemical.structure>
CCCCCO[C@@H]1[C@H](OC)[C@@H]([C@@H](O[C@H]2OC(C(=O)N[C@H]3CCC[C@@H](C)NC3=O)=C[C@H](O)[C@@H]2O)C(N)=O)O[C@H]1n1ccc(=O)[nH]c1=O

>  <pIC50>
7.12

$$$$
>  <chemical.structure>
CCCCCCCOC(=O)O[C@@H]1[C@H](OC)[C@@H]([C@@H](O[C@H]2OC(C(=O)N[C@H]3CCC[C@@H](C)NC3=O)=C[C@H](O)[C@@H]2O)C(N)=O)O[C@H]1n1ccc(=O)[nH]c1=O

>  <pIC50>
6.56

$$$$

====

Biological target: Phospho-N-acetylmuramoyl-pentapeptide-transferase (Escherichia coli K-12)
Assay: Inhibitory concentration required against Translocase I
pIC50: −log10 of the molar value.

>  <chemical.structure>
CCCCCCCCC(=O)O[C@@H]1[C@H](OC)[C@@H]([C@@H](O[C@H]2OC(C(=O)N[C@H]3CCC[C@@H](C)NC3=O)=C[C@H](O)[C@@H]2O)C(N)=O)O[C@H]1n1ccc(=O)[nH]c1=O

>  <rel>
=

>  <pIC50>
6.63

$$$$
>  <chemical.structure>
CCCCCCC(=O)O[C@@H]1[C@H](OC)[C@@H]([C@@H](O[C@H]2OC(C(=O)Nc3ccccc3)=C[C@H](O)[C@@H]2O)C(N)=O)O[C@H]1n1ccc(=O)[nH]c1=O

>  <rel>
=

>  <pIC50>
6.43

$$$$
>  <chemical.structure>
CO[C@H]1[C@@H](O)[C@H](n2ccc(=O)[nH]c2=O)O[C@@H]1[C@@H](O[C@H]1OC(C(=O)Nc2ccccc2)=C[C@H](O)[C@@H]1O)C(N)=O

>  <rel>
=

>  <pIC50>
7.92

$$$$
>  <chemical.structure>
CCCCCCCCCCO[C@@H]1[C@H](OC)[C@@H]([C@@H](O[C@H]2OC(C(=O)N[C@H]3CCC[C@@H](C)NC3=O)=C[C@H](O)[C@@H]2O)C(N)=O)O[C@H]1n1ccc(=O)[nH]c1=O

>  <rel>
=

>  <pIC50>
6.05

$$$$
>  <chemical.structure>
CCCCCCCCCCCCCCCC(=O)O[C@@H]1[C@H](OC)[C@@H]([C@@H](O[C@H]2OC(C(=O)Nc3ccccc3)=C[C@H](O)[C@@H]2O)C(N)=O)O[C@H]1n1ccc(=O)[nH]c1=O

>  <rel>
<

>  <pIC50>
5.49

$$$$

====

Recorded measurements of MIC, one per entry
Tested on: Mycobacterium kansasii
Assay: Antimycobacterial activity against Mycobacterium kansasii ATCC 12478
Type: functional
property.label: MIC

>  <chemical.structure>
CCCCCO[C@@H]1[C@H](OC)[C@@H]([C@@H](O[C@H]2OC(C(=O)N[C@H]3CCC[C@@H](C)NC3=O)=C[C@H](O)[C@@H]2O)C(N)=O)O[C@H]1n1ccc(=O)[nH]c1=O

>  <target.entity>
Mycobacterium kansasii

>  <property.label>
MIC

>  <data.value>
> 32 mg/L

$$$$
>  <chemical.structure>
CCCCCCCCO[C@@H]1[C@H](OC)[C@@H]([C@@H](O[C@H]2OC(C(=O)N[C@H]3CCC[C@@H](C)NC3=O)=C[C@H](O)[C@@H]2O)C(N)=O)O[C@H]1n1ccc(=O)[nH]c1=O

>  <target.entity>
Mycobacterium kansasii

>  <property.label>
MIC

>  <data.value>
> 32 mg/L

$$$$
>  <chemical.structure>
CCCCCCCCCCO[C@@H]1[C@H](OC)[C@@H]([C@@H](O[C@H]2OC(C(=O)N[C@H]3CCC[C@@H](C)NC3=O)=C[C@H](O)[C@@H]2O)C(N)=O)O[C@H]1n1ccc(=O)[nH]c1=O

>  <target.entity>
Mycobacterium kansasii

>  <property.label>
MIC

>  <data.value>
> 32 mg/L

$$$$
>  <chemical.structure>
CCCCCCCCCC(=O)O[C@@H]1[C@H](OC)[C@@H]([C@@H](O[C@H]2OC(C(=O)N[C@H]3CCC[C@@H](C)NC3=O)=C[C@H](O)[C@@H]2O)C(N)=O)O[C@H]1n1ccc(=O)[nH]c1=O

>  <target.entity>
Mycobacterium kansasii

>  <property.label>
MIC

>  <data.value>
< 0.063 mg/L

$$$$
